system: Haemophilus parasuis; assay: in vitro susceptibility, MIC by mini broth dilution; type: cell-based
Parameter Measured: MIC values, Haemophilus parasuis

1) CC[C@H]1OC(=O)[C@H](C)[C@@H](O[C@H]2C[C@@](C)(OC)[C@](O)(CNCC(O)c3ccccc3)[C@H](C)O2)[C@H](C)[C@@H](O[C@@H]2O[C@H](C)C[C@H](N(C)C)[C@H]2O)[C@](C)(O)C[C@@H](C)NC[C@H](C)[C@@H](O)[C@]1(C)O (stereo partly drawn) ... ≦0.25 ug/mi
2) CC[C@H]1OC(=O)[C@H](C)[C@@H](O[C@H]2C[C@@](C)(OC)[C@](O)(CNCc3ccc(F)cc3)[C@H](C)O2)[C@H](C)[C@@H](O[C@@H]2O[C@H](C)C[C@H](N(C)C)[C@H]2O)[C@](C)(O)C[C@@H](C)NC[C@H](C)[C@@H](O)[C@]1(C)O ... ≦0.25 ug/mi
3) CC[C@H]1OC(=O)[C@H](C)[C@@H](O[C@H]2C[C@@](C)(OC)[C@](O)(CNc3ccc(C)c(C)c3)[C@H](C)O2)[C@H](C)[C@@H](O[C@@H]2O[C@H](C)C[C@H](N(C)C)[C@H]2O)[C@](C)(O)C[C@@H](C)NC[C@H](C)[C@@H](O)[C@]1(C)O ... ≦0.25 ug/mi
